system_tested: OsSMF1 (Oryza sativa, UniProt Q6ZLB0 1-436)
Sequence: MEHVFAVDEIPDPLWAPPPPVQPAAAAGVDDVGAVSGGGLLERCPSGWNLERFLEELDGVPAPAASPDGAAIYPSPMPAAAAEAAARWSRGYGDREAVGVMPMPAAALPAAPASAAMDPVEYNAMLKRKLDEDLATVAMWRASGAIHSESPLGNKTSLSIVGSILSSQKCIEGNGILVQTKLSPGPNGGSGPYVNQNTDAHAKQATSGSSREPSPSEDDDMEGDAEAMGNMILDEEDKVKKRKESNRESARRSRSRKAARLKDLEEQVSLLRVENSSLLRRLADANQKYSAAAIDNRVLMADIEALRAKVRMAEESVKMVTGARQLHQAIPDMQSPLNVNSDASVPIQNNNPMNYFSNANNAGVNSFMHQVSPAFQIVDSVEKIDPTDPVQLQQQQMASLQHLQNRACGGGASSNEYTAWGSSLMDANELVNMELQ
run_description: protein-binding microarray (RPBM); PBS, 2% BSA, 51.3 ng/ul salmon testes DNA, 50 uM zinc acetate, 200 nM TF, 25 C, 1 h; high values mean tight binding
experimental_parameters: protein: recombinant; tags: N-terminal polyhistidine and DsRed monomer fusion (pET32a); chain copies: 2; label: CyDye5-dUTP incorporated in the synthesized complementary strand; 3' TTTTT single-stranded linker to array surface; dsDNA, one strand shown
The full ranking holds about 39,000 sequences; the median of “fluorescence intensity (a.u.)” is about 4,300, and the highest 2% start at about 39,000. This is one part of a sample in which the highest values are shown more often than they occur.
endpoint_name: binding signal

# chain_sequence, reported_result
records = [
    ("CGTGCTCACGAAACCCGATCGATCGGTGATCTGCACCGTCCGGAGTCACCTAGTGCAG", "45200 fluorescence intensity (a.u.)"),
    ("CTGGGAAATAGTGCTGCAGAGTCACTAGTTAGATCGAAATCGGAGTCACCTAGTGCAG", "3980 fluorescence intensity (a.u.)"),
    ("AGCTTACTATGATACCGATGAACACGTTATGACAACAAACCGGAGTCACCTAGTGCAG", "3880 fluorescence intensity (a.u.)"),
    ("ATTTTGACTGATGTGACGTTTGCGTGGCTGGTTTGATTAGCGGAGTCACCTAGTGCAG", "4770 fluorescence intensity (a.u.)"),
    ("ATTGCTTTATATGGTTATTTAAGTTTATTTTGCATCCCTACGGAGTCACCTAGTGCAG", "22600 fluorescence intensity (a.u.)"),
    ("TACAGCGTCATTGCAAGAATGGTGACGGGGTTTGAGGTTGCGGAGTCACCTAGTGCAG", "6110 fluorescence intensity (a.u.)"),
    ("ACTCTAAATTTAAACTTTTCACTCAATTGAAACTTTTCAACGGAGTCACCTAGTGCAG", "24700 fluorescence intensity (a.u.)"),
    ("TCCCGAAACCCGACACGCGGCACCGATCGATCGATCGATCCGGAGTCACCTAGTGCAG", "3240 fluorescence intensity (a.u.)"),
    ("CTGCCCAACAAAGTCCAGAAACTTCACGACATTCAATTGCCGGAGTCACCTAGTGCAG", "22600 fluorescence intensity (a.u.)"),
    ("GTTTATTCCAAGTGGTGGATGCTGATGAATTAAGTATATACGGAGTCACCTAGTGCAG", "3140 fluorescence intensity (a.u.)"),
    ("TCACCAGCGTCCGGTCAGCCATGGCGCTGAGTGGCCTCTTCGGAGTCACCTAGTGCAG", "21000 fluorescence intensity (a.u.)"),
    ("AAGGTTTGGAACATTCTGTTACCTATGAATACTGCACAGGCGGAGTCACCTAGTGCAG", "11700 fluorescence intensity (a.u.)"),
    ("CCGGGAAATTCTTGTGTTGTTGTGTTGGTCTTGAGCAATTCGGAGTCACCTAGTGCAG", "3630 fluorescence intensity (a.u.)"),
    ("GACACTTACAAGCACTGCGGCGTTACCATTTTATGGAACTCGGAGTCACCTAGTGCAG", "3220 fluorescence intensity (a.u.)"),
    ("ATACTTCCATTTGTGCCATACATTTTGTCATTTCGACCTGCGGAGTCACCTAGTGCAG", "3330 fluorescence intensity (a.u.)"),
    ("GGAGAGCTCCGGGAAGACGCGCGCTGACGCGGCCTCCCTGCGGAGTCACCTAGTGCAG", "8860 fluorescence intensity (a.u.)"),
    ("GCAGTGGCTAAGCTTAAGCTCAGGTATGATGACTCGTTGGCGGAGTCACCTAGTGCAG", "3610 fluorescence intensity (a.u.)"),
    ("GATTGTTGGTAGCTAGGTAGCTGTGGCCAAGAAAGTGAGACGGAGTCACCTAGTGCAG", "3810 fluorescence intensity (a.u.)"),
    ("TTAACGTGTACCACTACATGCATGCAGTGACGACAGTCAGCGGAGTCACCTAGTGCAG", "3150 fluorescence intensity (a.u.)"),
    ("CTTCTTCTTGTGATGCTTATATATGACTATGTATGTAGTGCGGAGTCACCTAGTGCAG", "3940 fluorescence intensity (a.u.)"),
    ("CTATGTTTTACACTTACACTCCTATCAAAATCCTACGTTTCGGAGTCACCTAGTGCAG", "22600 fluorescence intensity (a.u.)"),
    ("ATCTTGCCGAAGTTGTTGGTGACGAAGTCGAGGCTGCCGACGGAGTCACCTAGTGCAG", "3180 fluorescence intensity (a.u.)"),
    ("TACTTTCGTTTGCAAATATGCGGAATGATGGGGCTGTTTCCGGAGTCACCTAGTGCAG", "3700 fluorescence intensity (a.u.)"),
    ("TGATTGCAACAGGTGGGCTGGTTTTGCGTCATTTGACCAGCGGAGTCACCTAGTGCAG", "51900 fluorescence intensity (a.u.)"),
    ("AGTTCAAGAAAACTTTATATTCAAACAAGAAAATTGGGGCCGGAGTCACCTAGTGCAG", "40900 fluorescence intensity (a.u.)"),
    ("ACAGGTGCACGCACACGTGCCGCATCAACCAGACAGCCACCGGAGTCACCTAGTGCAG", "3360 fluorescence intensity (a.u.)"),
    ("TGTCCCCGAACCGGATCTGCCCGATGCTCGCCGTCAGCATCGGAGTCACCTAGTGCAG", "4300 fluorescence intensity (a.u.)"),
    ("GCTACATTTTCGTCGACGTACGTCAGTGACACATGAACTACGGAGTCACCTAGTGCAG", "4800 fluorescence intensity (a.u.)"),
    ("GTCTGGAGAGCCAGAGGAGAGGAGTAGCGGACGCGGTGCCCGGAGTCACCTAGTGCAG", "26700 fluorescence intensity (a.u.)"),
    ("GCAAACAAAATATACCTGCCAAGTCAACTTCACGGCCGGACGGAGTCACCTAGTGCAG", "4280 fluorescence intensity (a.u.)"),
    ("AGAAAAGAAAACGCGGCAATAAACAATGACACGGCCTGTCCGGAGTCACCTAGTGCAG", "4200 fluorescence intensity (a.u.)"),
    ("ACCACACCTTGTCAAAACTTCAGTAACAGCAGAAGTTACACGGAGTCACCTAGTGCAG", "3140 fluorescence intensity (a.u.)"),
    ("TTTTCAATTGTACATTGAGTCATTGACAATGCACAATTTACGGAGTCACCTAGTGCAG", "3680 fluorescence intensity (a.u.)"),
    ("TAAGAAAACTACAGCTTTATTACTCAAACTTAATATTAACCGGAGTCACCTAGTGCAG", "39800 fluorescence intensity (a.u.)"),
    ("TGTGAGCACGGATCGACGATGAAAACAGACGAAGAACATTCGGAGTCACCTAGTGCAG", "27400 fluorescence intensity (a.u.)"),
    ("ATATATACCTGCATACACTAGACTAGTATAATACCTGGCACGGAGTCACCTAGTGCAG", "3530 fluorescence intensity (a.u.)"),
    ("TATGGAGTGAAATGTCAGACTCCAAATGACTTATATGATGCGGAGTCACCTAGTGCAG", "64100 fluorescence intensity (a.u.)"),
]
